# Experimental protocol: Bidirectional Caco-2 permeability assay
# Format: in vitro ADME
# Particulars: human, Caco-2
Parameter: Papp B→A at 90 min

structure=CCOC(C)(C)C(=O)Nc1ncnn2c([C@]3(C#N)O[C@H](COC(=O)CC4CCC4)[C@@H](OC(=O)[C@@H](N)C(C)(C)C)[C@H]3O)ccc12 parameter="Papp B→A at 90 min" recorded_result="5.67 ×10⁻⁶ cm/s"
structure=CC(C)(C)[C@H](N)C(=O)OC[C@H]1O[C@@](C#N)(c2ccc3c(NC(=O)CC4CCCCC4)ncnn23)[C@H](O)[C@@H]1O parameter="Papp B→A at 90 min" recorded_result="16.9 ×10⁻⁶ cm/s"
structure=CC(C)(C)[C@H](N)C(=O)OC[C@H]1O[C@@](C#N)(c2ccc3c(N)ncnn23)[C@H](O)[C@@H]1OC(=O)CC1CCCCC1 parameter="Papp B→A at 90 min" recorded_result="20.7 ×10⁻⁶ cm/s"
structure=CC(C)[C@@H](C)C(=O)Nc1ncnn2c([C@]3(C#N)O[C@H](COC(=O)CC4CCCCC4)[C@@H](OC(=O)[C@@H](N)C(C)(C)C)[C@H]3O)ccc12 parameter="Papp B→A at 90 min" recorded_result="1.38 ×10⁻⁶ cm/s"
structure=CC[C@@H](C)C(=O)Nc1ncnn2c([C@]3(C#N)O[C@H](COC(=O)CC4CCCCC4)[C@@H](OC(=O)[C@@H](N)C(C)(C)C)[C@H]3O)ccc12 parameter="Papp B→A at 90 min" recorded_result="25.5 ×10⁻⁶ cm/s"
structure=CCCCOC(C)(C)C(=O)Nc1ncnn2c([C@]3(C#N)O[C@H](COC(=O)CC4CCCCCC4)[C@@H](OC(=O)[C@H](N)C(C)(C)C)[C@H]3O)ccc12 parameter="Papp B→A at 90 min" recorded_result="0.12 ×10⁻⁶ cm/s"
